All values here come from ChEMBL document CHEMBL3608218.

The following compounds each carry a recorded Kd for Serine/threonine-protein kinase PAK 2 (Homo sapiens).
The figure you give is taken to be in µM; do not add the unit.

Read the entry `CC(C)NC(=O)N1CC[C@H](NC2=Nc3cc(F)ccc3N(CC(F)F)c3ccc(Cl)cc32)C1` and write its reported Kd.
0.4

Read the entry `CCN1c2ccc(F)cc2N=C(N[C@H]2CCN(C(=O)NC(C)(C)C)C2)c2cc(Cl)ccc21` and write its reported Kd.
1.1

* * *

Experiment: Apparent permeability across apical to basolateral side in human Caco2 cells
Type: ADME, cell-based
Settings: Caco-2
outcome-measure: Papp A→B (×10⁻⁶ cm/s)
The figure you give is taken to be in ×10⁻⁶ cm/s; do not add the unit.

Read the entry `CC(C)NC(=O)N1CC[C@H](NC2=Nc3cc(F)ccc3N(CC(F)F)c3ccc(Cl)cc32)C1` and write its reported Papp A→B.
0.428

* * *

outcome-measure: Kd

Write down measured Kd (Serine/threonine-protein kinase PAK 3 (Homo sapiens)) for this molecule. `CCN1c2ccc(F)cc2N=C(N2CCN(C)CC2)c2cc(Cl)ccc21`
> 40 µM

* * *

Biological target: Serine/threonine-protein kinase PAK 1 (Homo sapiens, UniProt Q13153)
Sequence (Q13153 whole entry): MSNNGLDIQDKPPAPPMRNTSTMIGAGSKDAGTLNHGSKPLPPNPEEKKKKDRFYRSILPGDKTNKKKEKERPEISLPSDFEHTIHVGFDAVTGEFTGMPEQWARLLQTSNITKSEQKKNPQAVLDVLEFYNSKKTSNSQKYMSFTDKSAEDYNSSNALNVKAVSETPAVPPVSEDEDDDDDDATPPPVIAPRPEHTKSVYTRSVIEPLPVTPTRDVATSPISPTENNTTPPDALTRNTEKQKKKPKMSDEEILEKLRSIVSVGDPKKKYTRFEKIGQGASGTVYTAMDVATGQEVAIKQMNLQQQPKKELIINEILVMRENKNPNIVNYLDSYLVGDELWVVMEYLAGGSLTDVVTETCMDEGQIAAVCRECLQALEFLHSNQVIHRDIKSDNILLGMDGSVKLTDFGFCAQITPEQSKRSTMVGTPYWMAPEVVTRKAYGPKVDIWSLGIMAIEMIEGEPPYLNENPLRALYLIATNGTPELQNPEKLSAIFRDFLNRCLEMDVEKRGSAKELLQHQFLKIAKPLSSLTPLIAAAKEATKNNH
Test: Non-ATP competitive inhibition of full-length human PAK1 assessed as phosphate incorporation onto MBP preincubated for 5 mins followed by Cdc42, MBP, and mixture of ATP and [32P]-gamma-ATP addition measured after 20 mins by scintillation counting analysis
outcome-measure: pIC50
Remember the convention: pIC50 equals -log10 of concentration in molar.

Read the entry `Oc1ccc2ccccc2c1SSc1c(O)ccc2ccccc12` and write its reported pIC50.
5.60

* * *

Target: Serine/threonine-protein kinase PAK 5 (Homo sapiens)
Sequence (Q9P286 whole entry): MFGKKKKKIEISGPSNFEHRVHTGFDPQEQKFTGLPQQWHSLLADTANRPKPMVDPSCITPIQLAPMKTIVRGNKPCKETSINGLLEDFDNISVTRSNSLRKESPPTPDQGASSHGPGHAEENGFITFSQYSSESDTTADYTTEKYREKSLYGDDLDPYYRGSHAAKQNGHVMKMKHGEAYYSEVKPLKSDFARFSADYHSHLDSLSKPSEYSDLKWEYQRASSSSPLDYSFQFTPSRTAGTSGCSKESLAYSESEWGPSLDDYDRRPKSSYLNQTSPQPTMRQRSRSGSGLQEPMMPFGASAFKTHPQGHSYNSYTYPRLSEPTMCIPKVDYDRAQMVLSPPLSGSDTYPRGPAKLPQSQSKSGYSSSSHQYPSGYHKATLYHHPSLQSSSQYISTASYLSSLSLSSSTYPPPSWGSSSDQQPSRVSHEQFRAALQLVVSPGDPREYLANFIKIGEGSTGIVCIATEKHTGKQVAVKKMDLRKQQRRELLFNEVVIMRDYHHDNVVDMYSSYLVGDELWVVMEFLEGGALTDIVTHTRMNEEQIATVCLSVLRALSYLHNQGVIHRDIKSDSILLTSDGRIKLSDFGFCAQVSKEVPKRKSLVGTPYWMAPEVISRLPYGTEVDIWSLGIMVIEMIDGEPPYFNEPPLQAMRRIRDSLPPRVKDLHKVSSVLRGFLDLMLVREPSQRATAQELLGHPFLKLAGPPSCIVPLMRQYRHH
Test: Inhibition of full length PAK5 (unknown origin) expressed in HEK293 cells assessed as phosphate incorporation onto MBP preincubated for 5 mins followed by Cdc42, MBP, and mixture of ATP and [32P]-gamma-ATP addition measured after 20 mins by scintillation counting analysis
pIC50: −log10 of the molar value.
outcome-measure: pIC50

Read the entry `Oc1ccc2ccccc2c1SSc1c(O)ccc2ccccc12` and write its reported pIC50.
< 5.00

* * *

Assay: Aqueous solubility of the compound at pH 4
Format: physicochemical
Settings: buffer
outcome-measure: solubility

Read the entry `CC(C)NC(=O)N1CC[C@H](NC2=Nc3cc(F)ccc3N(CC(F)F)c3ccc(Cl)cc32)C1` and write its reported solubility.
> 1000 µM
